Each entry below carries its reported growth at 0.01 µM.
- ASSAY NOTES: Growth inhibition of human Hs 578T cells assessed as cell growth at 10^-8 M incubated for 48 hrs by sulforhodamine B assay
- Type: functional
- RECORDED CONDITIONS: read-out: Activity
Record the value in %, omitting the unit from your answer.

Clc1ccc(-c2nc(Nc3ccc(-c4nc5ccccc5[nH]4)cc3)nc(N3CCOCC3)n2)cc1	90
c1ccc(-c2nc(Nc3ccc(-c4nc5ccccc5[nH]4)cc3)nc(N3CCOCC3)n2)cc1	94
c1ccc2[nH]c(-c3ccc(Nc4nc(N5CCCCC5)nc(N5CCOCC5)n4)cc3)nc2c1	96

Shift focus to the following entry.
Looking up `Fc1ccc(-c2nc(Nc3ccc(-c4nc5ccccc5[nH]4)cc3)nc(N3CCOCC3)n2)cc1` , I found its growth at 0.01 µM recorded as 95

###

- ASSAY NOTES: Growth inhibition of human TK10 cells assessed as cell growth at 10 uM incubated for 48 hrs by sulforhodamine B assay
- Format: functional
- RECORDED CONDITIONS: TK-10, 48 h, read-out: Activity
METRIC NAME: growth at 10 µM (%)
Unit % implied. Number only.

// sample `Clc1ccc(-c2nc(Nc3ccc(-c4nc5ccccc5[nH]4)cc3)nc(N3CCOCC3)n2)cc1` , its growth at 10 µM was -94.4

The recorded growth at 10 µM for entry `c1ccc(-c2nc(Nc3ccc(-c4nc5ccccc5[nH]4)cc3)nc(N3CCOCC3)n2)cc1` equals -58.1

Record `c1ccc2[nH]c(-c3ccc(Nc4nc(N5CCCCC5)nc(N5CCOCC5)n4)cc3)nc2c1` , field growth at 10 µM: 58.8

The recorded growth at 10 µM for `Fc1ccc(-c2nc(Nc3ccc(-c4nc5ccccc5[nH]4)cc3)nc(N3CCOCC3)n2)cc1` is 43.9

###

- ASSAY NOTES: Growth inhibition of human DU145 cells assessed as cell growth at 10^-4 M incubated for 48 hrs by sulforhodamine B assay
- Assay type: functional
- RECORDED CONDITIONS: DU-145, 48 h, read-out: Activity
METRIC NAME: growth at 100 µM (%)
# unit: % | format: bare number

A selection of reference data follows.
Fc1ccc(-c2nc(Nc3ccc(-c4nc5ccccc5[nH]4)cc3)nc(N3CCOCC3)n2)cc1	8
Clc1ccc(-c2nc(Nc3ccc(-c4nc5ccccc5[nH]4)cc3)nc(N3CCOCC3)n2)cc1	-63
c1ccc2[nH]c(-c3ccc(Nc4nc(N5CCCCC5)nc(N5CCOCC5)n4)cc3)nc2c1	8

// next entry
Kindly note the recorded growth at 100 µM for `c1ccc(-c2nc(Nc3ccc(-c4nc5ccccc5[nH]4)cc3)nc(N3CCOCC3)n2)cc1` , which is -100

###

- Tested on: T47D
- ASSAY NOTES: Growth inhibition of human T47D cells assessed as cell growth at 10^-8 M incubated for 48 hrs by sulforhodamine B assay
- Format: functional
- RECORDED CONDITIONS: read-out: Activity
Parameter growth at 0.01 µM: see the listing below.
Just so you know, I need the unit written after the number.

Below, 3 compounds whose answers are already recorded.
Clc1ccc(-c2nc(Nc3ccc(-c4nc5ccccc5[nH]4)cc3)nc(N3CCOCC3)n2)cc1	99%
c1ccc(-c2nc(Nc3ccc(-c4nc5ccccc5[nH]4)cc3)nc(N3CCOCC3)n2)cc1	103%
c1ccc2[nH]c(-c3ccc(Nc4nc(N5CCCCC5)nc(N5CCOCC5)n4)cc3)nc2c1	93%

Alright, here's another compound for you.
According to the records, this compound `Fc1ccc(-c2nc(Nc3ccc(-c4nc5ccccc5[nH]4)cc3)nc(N3CCOCC3)n2)cc1` displays growth at 0.01 µM of 101%

Origin of measurements: ChEMBL document CHEMBL3808334
